Target Or System: OE19 (3A1) (Homo sapiens)
Assay Comment: Cellular ALDEFLUOR assay in OE19 cells (preferential ALDH3A1 expression)
Mark each entry 1 (yes) if its AC50 sits below 1000 nM, and 0 (no) for all others.

hey, is AC50 for Cc1cccc(CNC(=O)c2csc(N3CCN(c4cc(F)cc(F)c4)CC3)n2)c1 lower than 1000 nM or not?
0 (no)

# check: AC50 < 1000 nM for N#Cc1cccc(CNC(=O)c2csc(N3CCN(c4cccc(C(F)(F)F)c4)CC3)n2)c1
1 (yes)

Given the entry O=C(NCc1cccc(N2CCC2=O)c1)c1csc(N2CCN(c3cccc(C(F)(F)F)c3)CC2)n1 , would its reported AC50 be below 1000 nM?
1 (yes)

Below 1000 nM on AC50? Entry Cc1cccc(CNC(=O)c2csc(N3CCN(c4ccc([S+](=O)([O-])F)cc4)CC3)n2)c1
0 (no)

For this molecule, is AC50 lower than 1000 nM? Cc1cccc(CNC(=O)c2csc(N3CCN(c4cccc(OCc5ccccc5C)c4)CC3)n2)c1
0 (no)

Criterion: AC50 strictly below 1000 nM. Is it met by COc1cc(N2CCN(c3nc(C(=O)NCc4cccc(C)c4)cs3)CC2)ccc1F ?
0 (no)

Lab log: compare recorded AC50 with 1000 nM; is it strictly lower for Cc1cccc(CNC(=O)c2csc(N3CCN(Cc4cccc(C)c4)CC3)n2)c1 ?
0 (no)

----------
Target Or System: Human ALDH3A1 (Homo sapiens)
Sequence (P30838 1-453): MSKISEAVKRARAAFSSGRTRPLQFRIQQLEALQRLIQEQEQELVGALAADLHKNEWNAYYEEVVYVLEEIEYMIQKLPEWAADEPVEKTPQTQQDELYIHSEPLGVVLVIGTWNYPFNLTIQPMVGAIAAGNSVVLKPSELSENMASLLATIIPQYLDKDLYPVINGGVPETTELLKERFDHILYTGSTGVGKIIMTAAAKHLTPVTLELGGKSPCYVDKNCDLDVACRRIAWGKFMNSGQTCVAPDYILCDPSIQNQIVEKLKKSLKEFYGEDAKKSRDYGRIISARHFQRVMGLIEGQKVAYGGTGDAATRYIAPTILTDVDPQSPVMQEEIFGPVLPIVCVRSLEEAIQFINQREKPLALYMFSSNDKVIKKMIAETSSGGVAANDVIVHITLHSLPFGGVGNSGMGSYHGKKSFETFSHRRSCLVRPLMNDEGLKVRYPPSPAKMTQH
Assay Comment: ALDH3A1 biochemical assay (benzaldehyde/NADP+, diaphorase-resazurin readout, 1,536-well)
Assay Conditions: Table S2, in-house analogs
# if value of Efficacy reaches -60, tag YES; if it stays below, tag NO

Does the reported Efficacy for O=C(NC1CCCC1)c1csc(N2CCN(c3cccc(Cl)c3)CC2)n1 fall at or above the -60 mark?
YES

Confirm if Efficacy reported for the compound COC(=O)c1ccc2nc(CO[C@H]3CN(Cc4ccc5ccccc5n4)C[C@H]3F)[nH]c2c1 is -60 or above.
NO

Quick check, Efficacy >= -60? COc1ccc(CN2C[C@@H](F)[C@@H](OCc3nc4cnccc4[nH]3)C2)cc1
NO

Is Efficacy at least -60? Consider CN1CCOc2c(C(=O)NCCC(N)=O)cc(-c3ccccc3O)cc21
YES

API: above_or_equal(metric=Efficacy, cutoff=-60) for item O=C(NCc1ccccc1)c1csc(N2CCN(c3ccc(Cl)cc3)CC2)n1
NO

Determine whether measured Efficacy meets or exceeds -60 for COc1cccc(-c2cc(C(=O)NCc3cnn(C)c3)c3c(c2)N(C)CCO3)c1OC
YES

Determine whether this compound has Efficacy no lower than -60: Cc1ccc(-n2nc(C)c([C@@H]3C=C[C@@H](NCc4ccc(N(C)C)cc4)C3)c2C)cc1Cl
NO

Does Efficacy meet or surpass -60 for COc1ccc(N2CCN(c3nc(C(=O)NCc4ccc(C)cc4)cs3)CC2)cc1 ?
YES

Given the entry COC(=O)c1ccc2nc(CO[C@H]3CN(C4CCOCC4)C[C@H]3F)[nH]c2c1 , answer whether its Efficacy meets or surpasses -60.
YES

Threshold query (Efficacy >= -60) on CNC(=O)c1cccc(-c2cnc3[nH]cc(CC(=O)NCC(C)C)c3c2)c1
NO

Could you verify whether the entry CN1CCOc2c(C(=O)NCCC(N)=O)cc(-c3ccc(CO)cc3)cc21 shows Efficacy of no less than -60?
YES

Determine whether this compound has Efficacy no lower than -60: COc1ccc(N2CCN(c3nc(C(=O)NCc4ccc(F)cc4F)cs3)CC2)cc1
YES

Reported Efficacy at or above -60? CN1CCOc2c(C(=O)NCc3cccnc3)cc(-c3cnn(C)c3)cc21
YES

Determine whether measured Efficacy meets or exceeds -60 for O=C(NCc1ccc(F)cc1)c1csc(N2CCN(c3ccccc3F)CC2)n1
NO

Has COC(=O)c1ccc2nc(CO[C@H]3CN(Cc4ccc(C(F)(F)F)cc4)C[C@H]3F)[nH]c2c1 a recorded Efficacy greater than or equal to -60?
NO

Does Efficacy meet or surpass -60 for COC(=O)c1ccc2nc(CO[C@H]3CN(C(C)=O)C[C@H]3F)[nH]c2c1 ?
YES
